Target: rat somatostatin receptor subtype 2 (SSTR2) (Rattus norvegicus)
Construct: expressed in transfected cells; host or cells: Saccharomyces cerevisiae LY364 bearing pJH2 (SSTR2) and pLP82 (G protein)
Sequence (P30680 whole entry): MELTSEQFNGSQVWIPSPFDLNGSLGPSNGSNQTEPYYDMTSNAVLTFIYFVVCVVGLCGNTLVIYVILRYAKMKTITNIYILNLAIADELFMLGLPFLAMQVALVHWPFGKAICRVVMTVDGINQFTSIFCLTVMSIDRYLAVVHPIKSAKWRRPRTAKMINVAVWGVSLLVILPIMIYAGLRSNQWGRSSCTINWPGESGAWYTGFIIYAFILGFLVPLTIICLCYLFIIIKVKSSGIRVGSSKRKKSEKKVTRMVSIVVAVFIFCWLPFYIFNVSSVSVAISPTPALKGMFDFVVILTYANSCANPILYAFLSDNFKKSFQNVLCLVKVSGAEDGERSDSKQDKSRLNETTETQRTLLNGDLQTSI
Test: Yeast assay, somatostatin antagonist activity (zone of no growth in presence of S-14)
Format: cell-based
Conditions: rating on a scale of 1-5 from zone of no growth; 5 μL of 1 mg/mL S-14 added to each plate
Positions of bridges follow the written chain, without caps; N, C: chain ends. Non-standard residues stand in square brackets, D forms with d. Residues, ends and D or L forms follow the SMILES beside them. 2Nal = N[C@@H](Cc1ccc2ccccc2c1)C(=O)O; d2Nal = N[C@H](Cc1ccc2ccccc2c1)C(=O)O
observation_type: Yeast Assay Antagonist

CC(C)[C@@H]1NC(=O)[C@H](CCCCN)NC(=O)[C@@H](Cc2c[nH]c3ccccc23)NC(=O)[C@H](Cc2ccc(O)cc2)NC(=O)[C@H](NC(=O)[C@H](N)Cc2ccc3ccccc3c2)CSSC[C@@H](C(=O)N[C@@H](Cc2ccc(O)cc2)C(N)=O)NC1=O [D-Nal(2) Tyr Lys Val Tyr] (H-[d2Nal][dC]Y[dW]KVCY-NH2; disulfide 2-7) = 2
C[C@@H](O)[C@@H]1NC(=O)[C@H](CCCCN)NC(=O)[C@@H](Cc2c[nH]c3ccccc23)NC(=O)[C@H](Cc2ccc(O)cc2)NC(=O)[C@H](NC(=O)[C@@H](N)Cc2ccc3ccccc3c2)CSSC[C@@H](C(=O)N[C@@H](Cc2ccc(O)cc2)C(N)=O)NC1=O [L-Nal(2) Tyr Lys Thr Tyr] (H-[2Nal][dC]Y[dW]KTCY-NH2; disulfide 2-7 (inferred); N-terminus and C-terminus assumed) = 1
CC(C)[C@@H]1NC(=O)[C@H](CCCCN)NC(=O)[C@@H](Cc2c[nH]c3ccccc23)NC(=O)[C@H](Cc2ccc(O)cc2)NC(=O)[C@H](NC(=O)[C@@H](N)Cc2ccc3ccccc3c2)CSSC[C@@H](C(=O)N[C@@H](Cc2ccc(O)cc2)C(N)=O)NC1=O [L-Nal(2) Tyr Lys Val Tyr] (H-[2Nal][dC]Y[dW]KVCY-NH2; disulfide 2-7) = 3
